Value source: patent US20090269356

system under test: complement C5 in human serum/blood (Homo sapiens, UniProt P01031)
Sequence (P01031 whole entry): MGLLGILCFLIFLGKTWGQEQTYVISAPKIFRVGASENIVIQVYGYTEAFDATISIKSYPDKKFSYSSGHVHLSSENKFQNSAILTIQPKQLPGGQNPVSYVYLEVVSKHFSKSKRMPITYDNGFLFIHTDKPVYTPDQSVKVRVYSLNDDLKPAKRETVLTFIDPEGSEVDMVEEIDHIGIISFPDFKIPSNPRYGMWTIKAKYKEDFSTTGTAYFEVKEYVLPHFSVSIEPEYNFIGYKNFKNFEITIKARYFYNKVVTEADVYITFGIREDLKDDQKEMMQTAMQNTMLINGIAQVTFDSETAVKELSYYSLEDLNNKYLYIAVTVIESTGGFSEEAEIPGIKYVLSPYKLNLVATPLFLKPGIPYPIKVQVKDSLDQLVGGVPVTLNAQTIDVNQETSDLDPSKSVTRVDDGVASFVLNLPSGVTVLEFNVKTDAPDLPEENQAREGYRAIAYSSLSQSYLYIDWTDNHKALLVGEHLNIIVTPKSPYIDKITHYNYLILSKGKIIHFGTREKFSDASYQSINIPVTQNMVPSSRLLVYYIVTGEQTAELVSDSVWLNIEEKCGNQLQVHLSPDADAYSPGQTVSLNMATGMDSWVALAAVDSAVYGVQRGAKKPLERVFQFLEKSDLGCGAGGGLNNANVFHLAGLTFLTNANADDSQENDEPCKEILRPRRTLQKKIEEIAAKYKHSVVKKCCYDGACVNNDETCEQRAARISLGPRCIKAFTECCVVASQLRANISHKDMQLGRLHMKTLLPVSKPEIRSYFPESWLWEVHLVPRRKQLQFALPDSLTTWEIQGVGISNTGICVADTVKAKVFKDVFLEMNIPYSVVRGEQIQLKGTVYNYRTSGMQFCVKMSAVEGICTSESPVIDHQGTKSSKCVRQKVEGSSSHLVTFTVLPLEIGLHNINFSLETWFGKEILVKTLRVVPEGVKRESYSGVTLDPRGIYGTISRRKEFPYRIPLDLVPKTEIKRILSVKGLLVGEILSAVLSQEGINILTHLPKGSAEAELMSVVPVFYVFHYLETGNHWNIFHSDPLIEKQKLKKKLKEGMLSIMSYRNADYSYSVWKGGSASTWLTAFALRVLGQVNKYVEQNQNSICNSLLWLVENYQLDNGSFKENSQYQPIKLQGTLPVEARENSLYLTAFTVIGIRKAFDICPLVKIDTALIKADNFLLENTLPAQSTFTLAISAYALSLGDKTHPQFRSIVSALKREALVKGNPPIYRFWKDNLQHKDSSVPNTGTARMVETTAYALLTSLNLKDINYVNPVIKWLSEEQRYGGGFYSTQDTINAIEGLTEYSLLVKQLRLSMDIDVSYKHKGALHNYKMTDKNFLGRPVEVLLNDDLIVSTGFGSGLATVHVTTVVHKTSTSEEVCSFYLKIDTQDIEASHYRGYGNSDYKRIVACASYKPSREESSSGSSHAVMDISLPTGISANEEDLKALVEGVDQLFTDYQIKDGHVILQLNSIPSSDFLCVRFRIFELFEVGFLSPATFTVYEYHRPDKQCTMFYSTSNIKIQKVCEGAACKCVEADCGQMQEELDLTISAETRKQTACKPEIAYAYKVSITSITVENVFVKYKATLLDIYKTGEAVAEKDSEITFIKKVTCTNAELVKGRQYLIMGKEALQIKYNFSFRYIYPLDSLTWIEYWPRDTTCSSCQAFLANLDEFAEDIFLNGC
protocol notes: inhibition; CH50 hemolysis, 0.2% human serum, 37 C
assay setup: protein: extract; label: 5'-32P; stem-loop
measured parameter: pIC50
Units for pIC50: none; it is -log10 of a concentration expressed in mol/L.

pIC50 in this record for CGCCGCGGUCUCAGGCGCUGAGUCUGAGUUUACCUGCG (ssRNA, 2'-F all C and U; 2'-OMe purines except three 2'-OH purines; 3' inverted dT) [ARC186] : 9.30
